# System: 843782-103-R-J1-PDC complex spheroid viability;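 also: viability read after seven days of compound exposure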
# assay-info: Anticancer human tumor 843782-103-R-J1-PDC patient-derived lung adenocarcinoma cell line growth inhibition [RAS]; active = viability on the fitted dose curve at most 10% of control; inactive = the rest
# protocol-conditions: second compound 0.3 µM; first compound 3.16 µM
Outcome codes: True for active, False for inactive

compound	class-label
Cc1nc(N2CCC3(CC2)COC(C)C3N)c(CO)nc1Sc1ccnc(N)c1Cl (stereo not drawn) + CCn1c(-c2cc(N3CCN(C)CC3)cnc2C(C)OC)c2c3cc(ccc31)-c1csc(n1)CC(NC(=O)C1CC1C)C(=O)N1CCCC(N1)C(=O)OCC(C)(C)C2	False
CC(C)NCC(C(=O)N1CCN(c2ncnc3c2C(C)CC3O)CC1)c1ccc(Cl)cc1 (stereo not drawn) + CCn1c(-c2cccnc2C(C)OC)c2c3cc(ccc31)N1CCOC(CC(NC(=O)C(C(C)C)N(C)C(=O)C3(F)CCN(C(=O)C#CC(C)(C)N(C)C)CC3)C(=O)N3CCCC(N3)C(=O)OCC(C)(C)C2)C1	False
CC(=O)OC12COC1CC(O)C1(C)C(=O)C(O)C3=C(C)C(OC(=O)C(O)C(NC(=O)OC(C)(C)C)c4ccccc4)CC(O)(C(OC(=O)c4ccccc4)C21)C3(C)C (stereo not drawn) + CCn1c(-c2cc(N3CCN(C)CC3)cnc2C(C)OC)c2c3cc(ccc31)-c1csc(n1)CC(NC(=O)C1CC1C)C(=O)N1CCCC(N1)C(=O)OCC(C)(C)C2	True
C[C@@H](NC(=O)c1ncnc(N)c1Cl)c1ncc(C(=O)Nc2cc(C(F)(F)F)c(Cl)cn2)s1 + CCn1c(-c2cccnc2C(C)OC)c2c3cc(ccc31)N1CCOC(CC(NC(=O)C(C(C)C)N(C)C(=O)C3(F)CCN(C(=O)C#CC(C)(C)N(C)C)CC3)C(=O)N3CCCC(N3)C(=O)OCC(C)(C)C2)C1	False
CC(=O)OC12COC1CC(O)C1(C)C(=O)C(O)C3=C(C)C(OC(=O)C(O)C(NC(=O)OC(C)(C)C)c4ccccc4)CC(O)(C(OC(=O)c4ccccc4)C21)C3(C)C (stereo not drawn) + CCn1c(-c2cccnc2C(C)OC)c2c3cc(ccc31)N1CCOC(CC(NC(=O)C(C(C)C)N(C)C(=O)C3(F)CCN(C(=O)C#CC(C)(C)N(C)C)CC3)C(=O)N3CCCC(N3)C(=O)OCC(C)(C)C2)C1	True
NC1c2ccccc2OC12CCN(c1cnc3c(N4CCCc5ncccc54)n[nH]c3n1)CC2 (stereo not drawn) + CCn1c(-c2cccnc2C(C)OC)c2c3cc(ccc31)N1CCOC(CC(NC(=O)C(C(C)C)N(C)C(=O)C3(F)CCN(C(=O)C#CC(C)(C)N(C)C)CC3)C(=O)N3CCCC(N3)C(=O)OCC(C)(C)C2)C1	False
CC1(O)CCCC1n1c(=O)c(C(F)F)cc2cnc(NC3CCN(S(C)(=O)=O)CC3)nc21 (stereo not drawn) + CCn1c(-c2cc(N3CCN(C)CC3)cnc2C(C)OC)c2c3cc(ccc31)-c1csc(n1)CC(NC(=O)C1CC1C)C(=O)N1CCCC(N1)C(=O)OCC(C)(C)C2	True
NC1c2ccccc2OC12CCN(c1cnc3c(N4CCCc5ncccc54)n[nH]c3n1)CC2 (stereo not drawn) + CCn1c(-c2cc(N3CCN(C)CC3)cnc2C(C)OC)c2c3cc(ccc31)-c1csc(n1)CC(NC(=O)C1CC1C)C(=O)N1CCCC(N1)C(=O)OCC(C)(C)C2	False
